Hello, the source for this data is ChEMBL document CHEMBL1201862, in case you need it.

Record type: AC50 measurement. Applies to: Cytochrome P450 2C9 (Homo sapiens, UniProt P11712)

For the molecule `Clc1ccccc1-c1ccc2ncnc(NCc3cccnc3)c2c1` , what AC50 is on record?
0.794 µM (inconclusive)

What measured AC50 goes with `COc1ccc(-c2csc(-n3ncc(-c4cccs4)c3N)n2)cc1` ?
0.0501 µM (inconclusive)

Given `COc1ccc(Oc2ncc3nc(C)c(=O)n(Cc4cccs4)c3n2)cc1` , state its recorded AC50.
39.8 µM (inconclusive)

Recorded AC50 for `c1ccc2c(CSCc3cccc4ccccc34)cccc2c1` , please?
3.16 µM (inconclusive)

Can you look up the measured AC50 of CCC/C=C(\CCC)C(NC(=O)c1cccs1)c1ccc(C(F)(F)F)cc1 (stereo unspecified) for me?
0.501 µM (inconclusive)

GET /values?readout=AC50&item= O=C(Oc1ccccc1N1C(=O)C2CCCCC2C1=O)c1ccccc1 (stereo unspecified)
11.2 µM (inconclusive)

Given the entry `CSc1nc2ccccc2cc1/C=C(\C#N)c1cccc(Cl)c1` , report its measured AC50.
39.8 µM (inconclusive)

Item `Clc1ccc(Cc2nc(-c3cccnc3)no2)cc1` has what recorded AC50?
28.2 µM (inconclusive)

Would you kindly share the measured AC50 for `Nn1c(SCC(=O)N2CCOCC2)nnc1-c1ccccc1Cl` ?
0.0794 µM (inconclusive)

# input molecule: `O=C1C=C/C(=N/c2cccc3c(/N=C4\C=CC(=O)O4)cccc23)O1` ; wanted: its AC50
6.31 µM (inconclusive)

Can you share its AC50? I mean this molecule: `COc1cc(/C=N/NC(=O)c2cccc([N+](=O)[O-])c2)ccc1OCc1ccc(C)cc1`
1.58 µM (inconclusive)

----------
# run_description: C. albicans growth with fluconazole, confirmation, fluorescence, retest (AID 2467)
# Format: functional, cell-based
The source made the active and inactive calls.
parameter_measured: EC50

# input compound: `CC1(C)COCN1S(=O)(=O)c1ccc(C(=O)Nc2nnc(-c3ccc(Cl)s3)o2)cc1` ; wanted: its EC50
308 nM (active)

Recorded EC50 for `O=C(NCCCc1ccccc1)Nc1cccc(Cl)c1` , please?
> 38000 nM (not active)

Recorded EC50 for `Cc1cc(Cl)n2nc(C)c(-c3ccc(Cl)cc3)c2n1` , please?
> 38000 nM (not active)

Sample `CCCn1nnnc1NC(=O)c1ccc2ccccc2c1` — what was its EC50?
505 nM (active)

So what's the measured EC50 for this one? `COc1ccccc1/C=C1\SC(=S)N(NS(=O)(=O)c2ccccc2)C1=O`
940 nM (active)

----------
# run_description: Luminescence Cell-Based Dose Response HTS to Identify Activators of Luciferase Translation or Activity in H4 […] Cells. [Related pubchem assays: 1829 (Project Summary), 1814 (Primary HTS)]
# Format: functional
Calls of active or inactive are those of the source.
parameter_measured: EC50

# get_value(readout='EC50', item= `COn1c(-c2ccc(Cl)cc2)nc2ncccc21` )
35.5 µM (active)

Suppose we examine the molecule CSc1nc2sc3c(c2c(=O)n1C)CCC(C)C3 (configuration not stated) ; what EC50 value has been reported?
19.9 µM (active)

Given the entry CC1CCC(NC(=O)Cn2cc3c(n2)CCCC3)CC1 (configuration not stated) , report its measured EC50.
3.02 µM (active)

# query: EC50 of entry `Brc1ccc(-c2csc(NC3=NCCCCC3)n2)cc1`
18.9 µM (active)

I have this molecule here, `O=C(NCCc1c[nH]c2ccccc12)c1cc2ccccc2oc1=O` , and I need its recorded EC50.
119 µM (active)

// query EC50 value for entry `CCOC(=O)c1s/c(=N\C(=O)c2ccc(C)c(C)c2)n(C)c1C`
< 0.1 µM (active)

// query EC50 value for entry `CC(C)OC(=O)c1sc2nc3c(cc2c1N)C(=O)CCC3`
73.1 µM (active)

----------
Answer each item with its documented EC50.
# run_description: Luminescence Cell-Based Dose Confirmation HTS to Identify Activators of 5'UTR Stem-Loop Driven Alpha-Synuclein mRNA Translation in H4 Neuroglioblastoma Cells. [Related pubchem assays: 1829 (Project Summary), 1814 (Primary HTS)]
# Type: functional
Activity calls are given as the source filed them.

For the molecule `O=C(NCCc1c[nH]c2ccccc12)c1cc2ccccc2oc1=O` , what EC50 is on record?
481 nM (active)

Entry CSc1nc2sc3c(c2c(=O)n1C)CCC(C)C3 (stereo not given) has what EC50?
5510 nM (active)

Given `COn1c(-c2ccc(Cl)cc2)nc2ncccc21` , state its recorded EC50.
106 nM (active)

Name the reported EC50 value associated with the molecule CC1CCC(NC(=O)Cn2cc3c(n2)CCCC3)CC1 (stereo not given)
278 nM (active)

Data request, read-out EC50, for `Cc1occc1C(=O)N/N=C/c1cccc2ccccc12`
129 nM (active)

----------
Task for the reader: assign each of the following compounds its reported IC50.
# target_entity: UniProtKB Q194T2
# Sequence (Q194T2 whole entry): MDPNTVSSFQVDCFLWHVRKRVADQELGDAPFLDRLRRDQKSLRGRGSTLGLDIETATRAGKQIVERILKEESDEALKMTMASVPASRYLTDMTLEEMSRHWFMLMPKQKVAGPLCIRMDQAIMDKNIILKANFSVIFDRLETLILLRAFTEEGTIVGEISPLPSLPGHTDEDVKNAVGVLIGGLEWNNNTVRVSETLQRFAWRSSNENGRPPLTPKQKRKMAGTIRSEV
# Assay type: functional, Influenza A virus (A/California/07/2009(H1N1))
Calls of active or inactive are those of the source.

Would you mind telling me what IC50 value was observed for `Oc1ccc2ccccc2c1N=Nc1ccccn1` ?
13.9 µM (active)

Requested read-out: IC50. Entry: `Cc1cc(C)c(S(=O)(=O)/N=C2\C=C(Nc3ccc(C(=O)O)cc3)C(=O)c3ccccc32)c(C)c1`
20.8 µM (active)

// lookup IC50 for `O=C(N/N=C/c1cc([N+](=O)[O-])ccc1O)c1cccc(N2CCCC2=O)c1`
6.59 µM (active)

Fill in: IC50 of `CN(C)CCCNc1cc(O)c2ncccc2c1` is ___
4.57 µM (active)

Please look up its IC50: `Cc1ccc(S(=O)(=O)CCc2nnc(NC(=O)c3ccccn3)s2)cc1`
10.2 µM (active)

What does the record list as IC50 for `COc1ccc(Cc2nnc(N/N=C/c3ccc(O)cc3O)nc2O)cc1OC` ?
1.78 µM (active)

Look up IC50: COc1cc(OC)c2c(-c3ccccc3)cc(=O)oc2c1C(CCN1CCCC(C)C1)c1ccc(N(C)C)cc1 (stereo unspecified)
11.4 µM (active)

I'd like to know its IC50. The compound in question is `COC(=O)c1nc(-c2ccc3c(n2)C(=O)C(=N)C(OC)=C3O)c(N)c(-c2ccc(OC)c(OC)c2O)c1C`
> 100 µM (active)

Can you look up the measured IC50 of `Cc1cc(C)cc(NC2=C(N)C(=O)c3ccccc3C2=O)c1` for me?
37.3 µM (active)

Given the entry O=C(C1CCCN(S(=O)(=O)c2cccc3nonc23)C1)N1CCN(c2ccccc2Cl)CC1 (stereo unspecified) , report its measured IC50.
> 100 µM (active)

What value of IC50 has been reported for the following compound? `CC(=O)Nc1cccc(NC(=O)CSc2nn3c(=O)c(C)nnc3s2)c1`
9.96 µM (active)

----------
# target_entity: RNA-binding protein pos-1 (Caenorhabditis elegans, UniProt G5EF15)
# Sequence (G5EF15 whole entry, the tested form may be a part): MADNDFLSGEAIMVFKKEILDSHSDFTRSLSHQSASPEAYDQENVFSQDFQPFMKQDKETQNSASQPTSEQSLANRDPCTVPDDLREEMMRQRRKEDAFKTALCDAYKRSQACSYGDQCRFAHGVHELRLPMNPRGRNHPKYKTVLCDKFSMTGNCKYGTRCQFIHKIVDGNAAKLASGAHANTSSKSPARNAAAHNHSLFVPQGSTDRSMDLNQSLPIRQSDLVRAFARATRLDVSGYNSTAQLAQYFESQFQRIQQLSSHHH
# run_description: inhibitors of POS-1/mex-3 RNA binding, dose response, biochemical, fluorescence polarization (AID 1964);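 also: purified POS-1 fused to maltose binding protein made in E. coli; potency of compounds blocking POS-1 binding to fluorescent RNA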
Counter-ions that a name gives are not always drawn. Calls of active or inactive are those of the source.
Give measured EC50 for each item. Keep answers brief.

Looking for the measured EC50 of `Cc1cc(/C=c2/sc3nc4ccccc4n3c2=O)c(C)n1-c1ccccn1` , can you help?
> 300 µM (not active)

What does the data say about its EC50? Entry: CCOC(=O)C1=C(C)N=c2s/c(=C/c3ccc(OCC(=O)O)cc3)c(=O)n2C1c1ccc(OC)cc1OC (stereo unspecified)
85.1 µM (active)

GET /values?readout=EC50&item= `c1ccc(-c2nc(-c3ccccn3)nc(-c3ccccn3)n2)nc1`
31.1 µM (active)

# query: EC50 of entry `CN1C(=O)S/C(=C/c2cccn2-c2cccc(C(=O)O)c2)C1=O`
> 300 µM (not active)

Item under review: `COc1ccc(-n2nc(C(=O)c3cccs3)cc(-c3nc4ccccc4[nH]3)c2=N)cc1` . Reported EC50?
53.8 µM (active)

Record request: EC50 value, item `CC(=O)c1ccc(NC(=O)CSc2nnc(-c3ccncc3)o2)cc1`
> 300 µM (not active)

May I ask what EC50 has been recorded for CN1CCc2cccc3c2[C@H]1Cc1ccc(O)c(O)c1-3 [APOMORPHINE HYDROCHLORIDE] ?
16.9 µM (inconclusive)

Which value of EC50 has been reported for N#CC1=C(N)C(C#N)(C#N)C(c2cccnc2)C2COCC=C12 (stereo unspecified) in the records?
> 300 µM (not active)

Which EC50 is listed for `Cc1cc2nc3ccc(N(C)C)cc3nc2cc1N` ?
13 µM (active)

Returns the measured EC50 for the input compound. Input: `c1ccc2oc(CCc3nc4ccccc4o3)nc2c1`
> 300 µM (not active)

Quick one: EC50 of `CN1C(=O)C(=CNCCCCCCCCCCC(=O)O)C(=O)N(C)C1=O` ?
> 300 µM (not active)
